SYSTEM_TESTED: urokinase-type plasminogen activator (u-PA) (human, UniProt P00749 21-431, limits assumed)
ASSAY_METHOD_TEXT: cell-based or functional assay
acyl = not defined here
MEASURED_ATTRIBUTE: u-PA:t-PA Selectivity
Could you respond with only the numeric value?

Below, each entry is followed by its recorded u-PA:t-PA Selectivity result.
BINDER	MEASURED_ATTRIBUTE	MEASURED_NUMBER
LGGSGRNAQVRLE [peptide LGGSGRNAQVRLE]	u-PA:t-PA Selectivity	89
acyl-SGRS-NH2 (reading uncertain; also: acylated at the amino terminus (acyl group not given here)) [peptide SGRS]	u-PA:t-PA Selectivity	3.3

The record that follows has no u-PA:t-PA Selectivity shown yet.
So for LGGSGRSANAILE [peptide LGGSGRSANAILE] , the logged u-PA:t-PA Selectivity turned out to be 63
